# Test system: SK-MEL-5 melanoma
# test-details: NCI-60 one-dose screen, 48 h
# experimental-conditions: 10 µM unless noted
# Procedure: Growth inhibition of the SK-MEL-5 human tumor cell line is measured as a screen for anti-cancer activity. Cells are grown in 96 well plates and exposed to the test compound for 48 hours. Compounds are tested at a single concentration, which is 10^-5 M for most compounds. The reported endpoint is percent growth (GI% or GIPRCNT), where numbers from 0 - 100% represent growth inhibition, and numbers from -100% - 0 represent cell death. For example, a value of 40 represents 60% growth inhibition. […]
About 83,000 compounds went through this panel and 20% of them were active in at least one assay; those are over-represented in the sample as a whole. The source made the active and inactive calls. The calls were made as follows: active = growth percent below 10; inactive = the rest.
The reply should be one of these categories: true (1) = active, false (0) = inactive

Exercise: How did this test come out for O=C(CCN1CCCCC1)c1ccc(Cl)cc1 ?
Key: false (0)

Exercise: How did this test come out for CCOC(=O)Nc1ccc2c(c1)/C(=N\NC(=S)NC)c1ccccc1-2 ?
Key: false (0)

Exercise: How did this test come out for C#C[C@]1(O)CC[C@H]2[C@@H]3CC=C4c5nc(Nc6ccccn6)sc5CC[C@]4(C)[C@H]3CC[C@@]21C ?
Key: true (1)

Exercise: How did this test come out for Cc1ccc(-c2cn(C/C=C3\C=CN(S(=O)(=O)c4ccccc4)CC3)nn2)cc1 ?
Key: false (0)

Exercise: How did this test come out for Cc1ccccc1-n1nnc(C(=O)Nc2nc3ccc(F)cc3s2)c1C ?
Key: false (0)

Exercise: How did this test come out for O=c1c2c3c(sc2n2cnnc2n1Cc1ccccc1)CCCC3 ?
Key: false (0)

Exercise: How did this test come out for C[n+]1c(-c2ccccc2)c2cc(N)ccc2c2ccccc21 ?
Key: true (1)

Exercise: How did this test come out for CCCCC(CC)COC(=O)C[N+](C)(C)CCOC(c1ccccc1)c1ccccc1 (centres undefined) ?
Key: true (1)

Exercise: How did this test come out for O=S(=O)(NCCNc1nccc(-c2c(-c3cccc(F)c3)nc3occn23)n1)c1ccc(C(F)(F)F)cc1 ?
Key: false (0)

Exercise: How did this test come out for CCOc1cc(/C=N\NC(=O)N/N=C/c2ccc(O)c(OCC)c2)ccc1O ?
Key: false (0)

Exercise: How did this test come out for CC1=C/C(=C(\c2cc(C)c(O)c(C(=O)O)c2)c2c(Cl)cccc2Cl)C=C(C(=O)O)C1=O ?
Key: false (0)

Exercise: How did this test come out for CCCOc1ccc(-c2nc(-c3ccc(N)cc3)cs2)cc1 ?
Key: false (0)

Exercise: How did this test come out for CCOc1ccc(S(=O)(=O)Nc2ccc3c(c2)N(S(=O)(=O)CC)CCC3)cc1 ?
Key: false (0)

Exercise: How did this test come out for COc1ccc2nc3cc(Cl)ccc3c(Nc3ccc(O)cc3)c2c1 ?
Key: false (0)

Exercise: How did this test come out for O=C1Nc2ccccc2/C1=C/C(=O)c1ccc(N2CCCC2)cc1 ?
Key: false (0)

Exercise: How did this test come out for O=C(Nc1ccc(Nc2ccncc2)cc1)c1ccc([N+](=O)[O-])cc1 ?
Key: false (0)

Exercise: How did this test come out for CCN(CC)c1ccc2cc(C(Nc3ccc(Cl)cc3)c3nnnn3C(C)(C)C)c(=O)oc2c1 (centres undefined) ?
Key: false (0)

Exercise: How did this test come out for Cc1cnc(N)nc1OCC(C)(C)CNC(=O)c1cccc(-c2ccc(S(=O)(=O)Nc3ccc4c(c3)N(C(=O)C3CC3)CCC4)cc2)c1 ?
Key: true (1)

Exercise: How did this test come out for C=C(C)[C@@H]1CC[C@]2(C(=O)NCCCCCCN(CCCN)CCCN)CC[C@]3(C)[C@H](CC[C@@H]4[C@@]5(C)CC[C@H](OCCCN)C(C)(C)[C@@H]5CC[C@]43C)[C@@H]12 ?
Key: false (0)

Exercise: How did this test come out for O=S(=O)(NCc1ccccc1)c1ncnc2nc[nH]c12 ?
Key: false (0)

Exercise: How did this test come out for CC[C@]12C=CCN3CC[C@@]4(c5ccc(OC)cc5N(C)[C@H]4[C@@](O)(C(=O)OC)[C@@H]1OC(=O)CCC(=O)N[C@H](Cc1c[nH]c4ccccc14)C(=O)OC)[C@@H]32 ?
Key: true (1)

Exercise: How did this test come out for CC1Cc2c(Cl)ncnc2N(C)c2ccccc21 (centres undefined) ?
Key: true (1)

Exercise: How did this test come out for CCCCOC(=O)c1c(C)[nH]c(/C=C2\N=C(c3ccc[nH]3)C=C2OC)c1C ?
Key: true (1)

Exercise: How did this test come out for O=C(NCCCNC(=O)OCc1ccc2cccc(O)c2n1)OCc1ccc2cccc(O)c2n1 ?
Key: false (0)

Exercise: How did this test come out for Cn1cc(-c2noc(-c3cn(C)c4ncc(Br)cc34)n2)c2cc(Cl)ccc21 ?
Key: false (0)

Exercise: How did this test come out for CCCc1cc2cc(-n3nc(C)c4c3CC(C)(C)CC4=O)cc(NC3CCSCC3)c2c(=O)[nH]1 ?
Key: false (0)

Exercise: How did this test come out for Oc1cc(Nc2ccnc3cc(Cl)ccc23)c2ncccc2c1 ?
Key: false (0)

Exercise: How did this test come out for Nc1nnc(CSc2nnc3n(Cc4ccccc4)c(=O)c4c5c(sc4n23)CCCC5)s1 ?
Key: false (0)

Exercise: How did this test come out for COC(=O)c1cc(O)c2c(c1C(=O)OC)C[C@H]1[C@@H]3CC=C4C[C@@H](O)CC[C@]4(C)[C@H]3CC[C@]21C ?
Key: true (1)

Exercise: How did this test come out for c1coc2occoc=2o1 ?
Key: false (0)

Exercise: How did this test come out for CSc1nc(=S)c2nc(SC)n(-c3ccccc3)c2[nH]1 ?
Key: false (0)

Exercise: How did this test come out for CC1(C)NCCC[C@]2(C)[C@H]3C=CC4=C5C[C@](C)(CO)CC[C@]5(C)CC[C@@]4(C)[C@]3(C)CC[C@@H]12 ?
Key: true (1)

Exercise: How did this test come out for COc1cc2c(c(Br)c1N)-c1cc(Br)c(N)cc1C2=O ?
Key: false (0)

Exercise: How did this test come out for Nc1cc(Cl)cc2cccnc12 ?
Key: false (0)

Exercise: How did this test come out for Cc1ccc(S(=O)(=O)Oc2ccc(Br)cc2Br)cc1 ?
Key: false (0)

Exercise: How did this test come out for C[N+](C)(C)c1ncnc2[n-]cnc12 ?
Key: false (0)

Exercise: How did this test come out for O=C1/C(=C\c2cccn2Cc2ccccc2)c2ccccc2N1c1c(Cl)cccc1Cl ?
Key: true (1)

Exercise: How did this test come out for COc1cc2c(cc1OCCCCCOc1ccc(-n3c(C)nc4ccccc4c3=O)cc1)N=C[C@@H]1CCCN1C2=O ?
Key: true (1)

Exercise: How did this test come out for Nc1nc(SCc2cccc([N+](=O)[O-])c2)c2[nH]cnc2n1 ?
Key: false (0)
